// provenance: patent US8209131B2

system: TF1.8 cells; assay: TF1.8 bioassay of IL-4 mutants (support of proliferation); assay type: cell-based, human; conditions: IL-4 wt and mutants, TF1.8 cells
observation_type: Conc needed for 50% growth, average

molecule	Conc needed for 50% growth, average
R53A: IL-4 mutant, baculovirus expressed (protein) HKCDITLQEIIKTLNSLTEQKTLCTELTVTDIFAASKNTTEKETFCRAATVLAQFYSHHEKDTRCLGATAQQFHRHKQLIRFLKRLDRNLWGLAGLNSCPVKEANQSTLENFLERLKTIMREKYSKCSS	9.39 ng/mL
R85A: IL-4 mutant, baculovirus expressed (protein) HKCDITLQEIIKTLNSLTEQKTLCTELTVTDIFAASKNTTEKETFCRAATVLRQFYSHHEKDTRCLGATAQQFHRHKQLIRFLKALDRNLWGLAGLNSCPVKEANQSTLENFLERLKTIMREKYSKCSS	0.71 ng/mL

Find the recorded Conc needed for 50% growth, average belonging to R75A: IL-4 mutant, baculovirus expressed (protein) HKCDITLQEIIKTLNSLTEQKTLCTELTVTDIFAASKNTTEKETFCRAATVLRQFYSHHEKDTRCLGATAQQFHAHKQLIRFLKRLDRNLWGLAGLNSCPVKEANQSTLENFLERLKTIMREKYSKCSS and report it. 0.63 ng/mL
